Assay: Primary qHTS for small molecule stabilizers of the endoplasmic reticulum resident proteome: Secreted ER Calcium Modulated Protein (SERCaMP) assay (AID 1508630)
Conditions: SH-SY5Y GLuc-SERCaMP (Gaussia luciferase released on ER calcium loss) secretion, thapsigargin, luminescence; series mostly up to 38.4 µM
Results filed as inconclusive are left out. Activity calls are given as the source filed them. The call rests on the fitted dose curve; in most records, active means well fitted inhibition curve with a large enough effect; inconclusive means small, poorly fitted or top-dose-only effect; inactive means no such curve, though single readings can be large or run the other way. Numbered stars: 1 amine (or outer) side, 2 acyl side, 3 side chain; on linkers, the order of the positions; unused ones are H or OH. Bridge positions count the residues as written; N and C are the ends. Square brackets hold non-standard residues; d marks the D form. Peptide text beside a SMILES is read from it. I, II: the chains in the order shown. Actinocin(9to1) = Cc1c2oc3c(C)ccc(C(=O)[*:1])c3nc-2c(C(=O)[*:2])c(N)c1=O; NMeV = CN[C@H](C(=O)O)C(C)C; Sar = CNCC(=O)O
Would you mind answering with one of these outcomes? Y = active, N = inactive

Check the results log: what was the call for COc1cc(C(=S)N2CCOCC2)cc(OC)c1OC ?
N

Check the results log: what was the call for CCOc1ccc2nc3cc(N)ccc3c(N)c2c1 ?
N

Check the results log: what was the call for CC[N+](CC)(CCNC(=O)C(=O)NCC[N+](CC)(CC)Cc1ccccc1Cl)Cc1ccccc1Cl ?
N

Check the results log: what was the call for Cc1c2oc3c(C)ccc(C(=O)N[C@@H]4C(=O)N[C@H](C(C)C)C(=O)N5CCC[C@H]5C(=O)N(C)CC(=O)N(C)[C@@H](C(C)C)C(=O)O[C@@H]4C)c3nc-2c(C(=O)N[C@@H]2C(=O)N[C@H](C(C)C)C(=O)N3CCC[C@H]3C(=O)N(C)CC(=O)N(C)[C@@H](C(C)C)C(=O)O[C@@H]2C)c(N)c1=O (I: T[dV]P[Sar][NMeV] / II: T[dV]P[Sar][NMeV]; ester I:1-I:C, II:1-II:C; linker I:N-II:N via Actinocin(9to1)) ?
N

Check the results log: what was the call for Clc1ccc2c(c1)CCc1cccnc1C2=C1CCNCC1 ?
N

Check the results log: what was the call for OC[C@H]1O[C@@H](n2cnc3c(=S)nc[nH]c32)[C@H](O)[C@@H]1O ?
N

Check the results log: what was the call for CN1[C@@H]2CC[C@H]1CC(OC(=O)c1c[nH]c3ccccc13)C2 (stereo not given in full) ?
Y

Check the results log: what was the call for CCN1CCC[C@H]1CNC(=O)c1c(OC)ccc(Br)c1OC ?
N

Check the results log: what was the call for CC(C)(C)CC(C)(C)c1ccc(O)c(Cc2ccc(Cl)cc2Cl)c1 ?
N

Check the results log: what was the call for Cc1ccc(C(=O)C(C)CN2CCCCC2)cc1 (stereo not given) ?
N

Check the results log: what was the call for CCCSS/C(CCO)=C(\C)N(C=O)Cc1cnc(C)nc1N ?
N

Check the results log: what was the call for O=C(Nc1ccc(Cl)c(Cl)c1)C1CC1 ?
N

Check the results log: what was the call for CC[C@H](C)C(=O)O[C@H]1CCC=C2C=C[C@H](C)[C@H](CC[C@@H]3C[C@@H](O)CC(=O)O3)[C@H]21 ?
Y

Check the results log: what was the call for C=C(CC)C(=O)c1ccc(OCC(=O)O)c(Cl)c1Cl ?
N

Check the results log: what was the call for C[C@H](CCC(=O)O)[C@H]1CC[C@H]2[C@@H]3C(=O)C[C@@H]4CC(=O)CC[C@]4(C)[C@H]3CC(=O)[C@]12C ?
N

Check the results log: what was the call for CCCN1CCCC[C@H]1C(=O)Nc1c(C)cccc1C ?
N

Check the results log: what was the call for Cc1onc(-c2c(Cl)cccc2Cl)c1C(=O)N[C@@H]1C(=O)N2[C@@H]1SC(C)(C)[C@@H]2C(=O)O ?
N

Check the results log: what was the call for COC1=CC(=O)C[C@@H](C)[C@]12Oc1c(Cl)c(OC)cc(OC)c1C2=O ?
N

Check the results log: what was the call for Oc1cc(O)c2c(c1)O[C@H](c1ccc(O)c(O)c1)[C@H](O)C2 ?
N

Check the results log: what was the call for CCN(CC)CCOc1ccc(C(O)(Cc2ccc(Cl)cc2)c2ccc(C)cc2)cc1 (stereo not given) ?
N

Check the results log: what was the call for C=CCc1ccc(O)c(OC)c1 ?
N

Check the results log: what was the call for N[C@@H](Cc1cnc[nH]1)C(=O)O ?
N

Check the results log: what was the call for CC(C)=CCC1C(=O)N(c2ccccc2)N(c2ccccc2)C1=O ?
N

Check the results log: what was the call for CC(=O)CC(c1ccc([N+](=O)[O-])cc1)c1c(O)c2ccccc2oc1=O (stereo not given) ?
N

Check the results log: what was the call for CCCCCCCCCCCCCCCC[N+](C)(C)CC ?
N

Check the results log: what was the call for CCOC(=O)n1ccn(C)c1=S ?
N

Check the results log: what was the call for Cc1ncc(CSSCc2cnc(C)c(O)c2CO)c(CO)c1O ?
N

Check the results log: what was the call for COc1c2occc2c(OC)c2c(=O)cc(C)oc12 ?
N

Check the results log: what was the call for C[C@H]1C[C@H]2[C@@H]3CCC4=CC(=O)C=C[C@]4(C)[C@@]3(Cl)[C@@H](O)C[C@]2(C)[C@@]1(O)C(=O)CO ?
N

Check the results log: what was the call for Nc1ccc(C(=O)O)cc1 ?
N

Check the results log: what was the call for Cc1nc2n(c(=O)c1CCN1CCC(c3noc4cc(F)ccc34)CC1)CCC[C@H]2O ?
N

Check the results log: what was the call for CCN1CCN(c2cc3c(cc2F)c(=O)c(C(=O)O)cn3C2CC2)CC1 ?
Y

Check the results log: what was the call for Oc1c(Cl)cc(Cl)cc1Sc1cc(Cl)cc(Cl)c1O ?
N

Check the results log: what was the call for CC(=O)O[C@H]1C[C@@H]2CC[C@@H]3[C@H](CC[C@@]4(C)[C@H]3C[C@H]([N+]3(C)CCCCC3)[C@@H]4OC(C)=O)[C@@]2(C)C[C@@H]1[N+]1(C)CCCCC1 ?
N

Check the results log: what was the call for NCCc1ccn[nH]1 ?
N

Check the results log: what was the call for O=c1c(-c2ccccc2)c1-c1ccccc1 ?
N

Check the results log: what was the call for CCOc1ccc(Cc2nccc3cc(OCC)c(OCC)cc23)cc1OCC ?
N

Check the results log: what was the call for CC(Cc1ccccc1)(NC(=O)CN)c1ccccc1 (stereo not given) ?
N

Check the results log: what was the call for O=C(O)CNC(=O)c1ccccc1 ?
N

Check the results log: what was the call for Cc1c(C)n(Cc2ccccc2)c2ccc(C(=O)OCCN(C)C)cc12 ?
N

Check the results log: what was the call for N[C@H](Cc1c[nH]c2ccccc12)C(=O)O ?
N

Check the results log: what was the call for CC(C)(Oc1ccc(Cl)cc1)C(=O)O ?
N

Check the results log: what was the call for CNCCC(Oc1ccccc1C)c1ccccc1 (stereo not given) ?
N

Check the results log: what was the call for CC(C)NC[C@@H](O)COc1cccc2ccccc12 ?
N

Check the results log: what was the call for COc1ccc(CCN2CCC(Nc3nc4ccccc4n3Cc3ccc(F)cc3)CC2)cc1 ?
N

Data credit: PubChem BioAssay (NCATS)
